Cited source for all entries: ChEMBL document CHEMBL1135642

Target: GABA-A receptor; anion channel
Assay: Binding affinity was determined by displacement of [3H]flumazenil from rat cortex homogenates
// thresholds for Ki classes: lower segment = under 8 nM, middle segment = from 8 nM up to 70 nM, upper segment = 70 nM and over

Compound | Tested on | Discrete label
Cc1nnc2n1-c1ccc(Cl)cc1C(c1ccccc1)=NC2 [ALPRAZOLAM] | GABA-A receptor; anion channel | lower segment
O=c1[nH]c2c(c3nc(-c4ccccc4F)cn13)CN(CC1CCCCC1)CC2 | GABA-A receptor; anion channel | lower segment
CCCCOC(=O)N1CCc2nc(O)n3cc(-c4ccccc4F)nc3c2C1 | GABA-A receptor; anion channel | upper segment
O=C(OCc1ccccc1)N1CCc2[nH]c(=O)n3cc(-c4ccccc4F)nc3c2C1 | GABA-A receptor; anion channel | middle segment
CCC(=O)N1CCc2nc(O)n3cc(-c4ccccc4F)nc3c2C1 | GABA-A receptor; anion channel | upper segment
CCOC(=O)N1CCc2nc(O)n3cc(-c4ccccc4F)nc3c2C1 | GABA-A receptor; anion channel | middle segment
O=c1[nH]c2c(c3nc(-c4ccccc4F)cn13)CN(Cc1cccnc1)CC2 | GABA-A receptor; anion channel | lower segment
O=C(Cc1ccccc1)N1CCc2nc(O)n3cc(-c4ccccc4F)nc3c2C1 | GABA-A receptor; anion channel | upper segment
O=C(c1cccnc1)N1CCc2nc(O)n3cc(-c4ccccc4F)nc3c2C1 | GABA-A receptor; anion channel | upper segment
O=c1[nH]c2c(c3nc(-c4ccccc4F)cn13)CN(Cc1ccccc1)CC2 | GABA-A receptor; anion channel | lower segment
CC(=O)N1CCc2nc(O)n3cc(-c4ccccc4F)nc3c2C1 | GABA-A receptor; anion channel | middle segment
Oc1nc2c(c3nc(-c4ccccc4F)cn13)CN(CCc1ccccc1)CC2 | GABA-A receptor; anion channel | upper segment
COc1ccc(-c2cn3c(=O)[nH]c4c(c3n2)CN(Cc2ccccc2)CC4)cc1 | GABA-A receptor; anion channel | lower segment
CC(c1ccc(F)cc1)N1CCc2nc(O)n3cc(-c4ccccc4F)nc3c2C1 (stereo not given) | GABA-A receptor; anion channel | middle segment
COc1ccc(-c2cn3c(O)nc4c(c3n2)CN(Cc2ccccc2)CC4)c(F)c1 | GABA-A receptor; anion channel | lower segment
Oc1nc2c(c3nc(-c4ccccc4F)cn13)CN(c1ncccn1)CC2 | GABA-A receptor; anion channel | upper segment
COc1ccccc1-c1cn2c(O)nc3c(c2n1)CN(Cc1ccccc1)CC3 | GABA-A receptor; anion channel | upper segment
CC(C)N1CCc2nc(O)n3cc(-c4ccccc4F)nc3c2C1 | GABA-A receptor; anion channel | middle segment
CC(c1ccccc1F)N1CCc2nc(O)n3cc(-c4ccccc4F)nc3c2C1 (stereo not given) | GABA-A receptor; anion channel | lower segment
Oc1nc2c(c3nc(-c4ccccc4F)cn13)CN(Cc1cccs1)CC2 | GABA-A receptor; anion channel | lower segment
Oc1nc2c(c3nc(-c4ccccc4F)cn13)CN(Cc1ccncc1)CC2 | GABA-A receptor; anion channel | lower segment
Oc1nc2c(c3nc(-c4ccc(Cl)cc4)cn13)CN(Cc1ccccc1)CC2 | GABA-A receptor; anion channel | upper segment
O=C(c1ccncc1)N1CCc2nc(O)n3cc(-c4ccccc4F)nc3c2C1 | GABA-A receptor; anion channel | upper segment
O=C(c1ccccn1)N1CCc2nc(O)n3cc(-c4ccccc4F)nc3c2C1 | GABA-A receptor; anion channel | upper segment
CCCCN1CCc2nc(O)n3cc(-c4ccccc4F)nc3c2C1 | GABA-A receptor; anion channel | lower segment
O=C(c1ccccc1)N1CCc2nc(O)n3cc(-c4ccccc4)nc3c2C1 | GABA-A receptor; anion channel | upper segment
CCN1CCc2nc(O)n3cc(-c4ccccc4F)nc3c2C1 | GABA-A receptor; anion channel | middle segment
O=C(c1ccccc1)N1CCc2nc(O)n3cc(-c4ccccc4F)nc3c2C1 | GABA-A receptor; anion channel | upper segment
C[C@@H](c1ccccc1)N1CCc2nc(O)n3cc(-c4ccccc4F)nc3c2C1 | GABA-A receptor; anion channel | lower segment
COc1cccc(-c2cn3c(=O)[nH]c4c(c3n2)CN(Cc2ccccc2)CC4)c1 | GABA-A receptor; anion channel | lower segment
O=c1[nH]c2c(c3nc(-c4ccc(F)cc4)cn13)CN(Cc1ccccc1)CC2 | GABA-A receptor; anion channel | middle segment
O=c1[nH]c2c(c3nc(-c4cccc(F)c4)cn13)CN(Cc1ccccc1)CC2 | GABA-A receptor; anion channel | middle segment
O=c1[nH]c2c(c3nc(-c4ccccc4F)cn13)CN(Cc1cnc[nH]1)CC2 | GABA-A receptor; anion channel | middle segment
Oc1nc2c(c3nc(-c4ccccc4F)cn13)CN(CC1CC1)CC2 | GABA-A receptor; anion channel | middle segment
COc1ccc(-c2cn3c(O)nc4c(c3n2)CN(C)CC4)c(F)c1 | GABA-A receptor; anion channel | middle segment
C=CCN1CCc2[nH]c(=O)n3cc(-c4ccccc4F)nc3c2C1 | GABA-A receptor; anion channel | middle segment
CC(c1ccccc1)N1CCc2nc(O)n3cc(-c4ccccc4F)nc3c2C1 (stereo not given) | GABA-A receptor; anion channel | lower segment
O=c1[nH]c2c(c3nc(-c4ccc(F)cc4F)cn13)CN(Cc1ccccc1)CC2 | GABA-A receptor; anion channel | lower segment
CC(c1cccc(F)c1)N1CCc2nc(O)n3cc(-c4ccccc4F)nc3c2C1 (stereo not given) | GABA-A receptor; anion channel | middle segment
Cc1ccc(-c2cn3c(O)nc4c(c3n2)CN(Cc2ccccc2)CC4)cc1 | GABA-A receptor; anion channel | middle segment
Oc1nc2c(c3nc(-c4ccccc4F)cn13)CN(CCCc1ccccc1)CC2 | GABA-A receptor; anion channel | upper segment
CCCC(=O)N1CCc2nc(O)n3cc(-c4ccccc4F)nc3c2C1 | GABA-A receptor; anion channel | upper segment
COc1ccc(-c2cn3c(O)nc4c(c3n2)CN(C)CC4)cc1 | GABA-A receptor; anion channel | upper segment
